The entries below come with measured %Inh values attached.
# Test system: JNK2
# Construct: gene MAPK9
# assay conditions: concentration: 1 μM, replicates: in singlicate; n = 1;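 further: KINOMEscan kinase panel screen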
reported metric: %Inh (%)

Cc1nn2c(=O)cc(N3CCOCC3)nc2n1Cc1cccc(Cl)c1Cl | 15
CCn1c(-c2ccoc2)nc2cnccc21 | 0
Cn1c(=O)c(F)c(Nc2ccc(I)cc2F)c2c(=O)n(OC[C@H](O)CO)cnc21 | 0
CN1C(=O)C(Nc2cc(Cl)c(O)c(Cl)c2)=C(c2ccc(Cl)cc2)C1=O | 19
O=C(Nc1n[nH]c2nc(-c3ccccc3)c(Cl)cc12)C1CC1 | 32
CCn1c(-c2nonc2N)nc2ccccc21 | 57
COc1cccc(C2=C(N(C)c3ccccc3)C(=O)NC2=O)c1 | 14
COc1ccc(-n2cnc3c(N)ncnc32)cc1 | 0
CCC(=O)c1c(-c2ccccc2)c2cc(Cl)ccc2c(=O)n1Cc1cc(S(C)(=O)=O)n(CCC(C)(C)O)n1 | 99.9
Cc1c(Cn2c(C)nn3c(=O)cc(N4CCO[C@H](C)C4)nc23)cccc1C(F)(F)F | 27
CCCC(=O)Nc1n[nH]c2ncc(-c3cccc4ccccc34)cc12 | 21
COc1cc2ncn(-c3cc(OCc4ccncc4Br)c(C(N)=O)s3)c2cc1OC | 5
O=c1cc(N2CCOCC2)nc2n(Cc3ccc(F)c(Cl)c3)ccn12 | 8
COc1cc2ncn(-c3cc(OCCCc4ccccc4)c(C(N)=O)s3)c2cc1OC | 21
COc1ccc(-c2cc3c(C)nc(N)nc3n([C@H]3CC[C@H](OCCO)CC3)c2=O)cn1 | 0
Cl.NS(=O)(=O)c1cccc(Nc2cc(-c3ccc(F)cc3)n[nH]2)c1 | 1
Nc1nc(N)c2nc(-c3ccccc3)[nH]c2n1 | 14
Cc1cccc(-c2nc(Nc3ccc4c(cnn4C)c3)c3ccccc3n2)n1 | 60
CCCNC(=O)Nc1ccc(Oc2ncnc3ccn(C)c23)cc1 | 3
Nc1ncnc2c1ncn2-c1ccc(Cl)cc1 | 0
C[C@@H]1CC[C@H](C(=O)NC2CCCCC2)CN1c1cc(-c2ccc3c(N)n[nH]c3c2)nc(N)n1 | 30
Nc1nc(-c2ccccc2F)c(-c2ccnc3ccccc23)s1 | 87
CCC(=O)c1c(-c2ccccc2)c2cc(Cl)ccc2c(=O)n1Cc1cc(S(C)(=O)=O)n(CC(F)F)n1 | 99.4
Nc1n[nH]c2ncc(-c3ccccc3)cc12 | 14
COc1ccc(CNC(=O)NC2CCN(c3ccnc(Nc4ccc(F)cc4)n3)C2)cc1 (centres unmarked) | 9
O=C(NCCNc1ccnc(Nc2ccc(F)cc2)n1)Nc1ccc2c(c1)OCO2 | 10
Nc1ncnc2c1ncn2-c1cccc2ccccc12 | 0
CCc1ccc(-c2ccc3c(c2)-c2nn(C)cc2S(=O)(=O)N3C)cc1 | 0
FC(F)(F)c1ccc(-c2ncn(CCCN3CCOCC3)c2-c2ccncc2)cc1 | 53
COc1ccc(Nc2nccc(N3CCC(NS(=O)(=O)c4ccc(NC(C)=O)cc4)C3)n2)cc1 (centres unmarked) | 0
COc1cc(Nc2nccc(N3CCC(NC(=O)C(C)c4ccc(Cl)cc4)C3)n2)cc(OC)c1OC (centres unmarked) | 6
COc1cc(Nc2nccc(N3CCC(NC(=O)C4COc5ccccc5O4)C3)n2)cc(OC)c1OC (centres unmarked) | 22
Nc1n[nH]c2nnc(-c3ccccc3)c(-c3ccccc3)c12 | 23
Cc1cccc(-c2cc(-c3c[nH]nc3-c3ccccn3)ccn2)c1 | 66
CCC(=O)c1c(-c2ccccc2)c2cc(Cl)ccc2c(=O)n1Cc1cc(C(=O)NC2CC2)n(C)n1 | 100
Cc1ccc(Oc2ccc(Nc3ncnc4cc[nH]c34)cc2C)cn1 | 44
COc1cc2nccc(Nc3cccc(Oc4ccccc4)c3)c2cc1OC.Cl | 31
CCc1nc(-c2cccc(C)c2)c(-c2ccncc2)s1 | 76

---

# Tested on: MYO3A
# assay conditions: concentration: 1 μM, replicates: in singlicate; n = 1
The entries below come with measured %Inh values attached.
reported metric: %Inh (%)

COc1cc(OC)cc(-c2cc3cnc(N)nc3nc2NC(=O)NC(C)(C)C)c1 | 0
O=c1cc(N2CCOCC2)nc2n(Cc3ccc(F)c(Cl)c3)ccn12 [GSK2297099] | 8
Nc1n[nH]c2ncc(-c3ccccc3)cc12 [SB-517081] | 20
COc1cc2ncn(-c3cc(OCc4ccc(S(C)(=O)=O)cc4)c(C(N)=O)s3)c2cc1OC [GW869979] | 0
Cc1cc(Nc2nc(-c3cccc(C)n3)nc3ccccc23)ccn1 [GW872411] | 0
Cc1nnc(-c2ccc(C)c(-c3ccc(C(=O)O)cc3)c2)o1 [GW608005] | 0
Cc1cccc(-c2nc(Nc3ccc4c(cnn4C)c3)c3ccccc3n2)n1 [GW876731] | 0
O=C1NC(=O)C(c2ccccc2)=C1Nc1cccc(O)c1 [SB-390534] | 17
CCC(=O)c1c(-c2ccccc2)c2cc(Cl)ccc2c(=O)n1Cc1ccc(C(=O)O)cc1 | 0
CCC(=O)c1c(-c2ccccc2)c2cc(Cl)ccc2c(=O)n1Cc1cc(C(=O)NC2CC2)n(C)n1 | 4
Nc1nccc2scc(-c3ccc4c(c3)CCN4C(=O)Cc3ccccc3)c12 [GSK2576924] | 11
CCc1nc(-c2cccc(C)c2)c(-c2ccncc2)s1 | 4
COc1ccc(-n2cnc3c(N)ncnc32)cc1 [SKF-97236] | 4
Fc1cccc(CSc2nnc(-c3ccc4c(c3)CCO4)o2)c1 | 0
COC(=O)c1c(-c2ccccc2)c2cc(Br)ccc2c(=O)n1Cc1ccc(NC(=O)CCC(=O)O)cc1 | 100
COc1cccc(C2=C(N(C)c3ccccc3)C(=O)NC2=O)c1 [SB-334865] | 22
CCC(=O)c1c(-c2ccccc2)c2cc(Cl)ccc2c(=O)n1Cc1cc(S(C)(=O)=O)n(CC(F)F)n1 | 0
CN(C)c1cc(-c2ccc3c(N)n[nH]c3c2)nc(N)n1 [GSK2219329] | 11
Cc1c(Cn2c(C)nn3c(=O)cc(N4CCO[C@H](C)C4)nc23)cccc1C(F)(F)F [GSK2373690] | 0
Cc1nn2c(=O)cc(N3CCOCC3)nc2n1Cc1cccc(Cl)c1Cl [GSK2342769] | 0
COc1cc2nccc(Nc3cccc(Oc4ccccc4)c3)c2cc1OC.Cl [GW284543] | 0
Cn1c(=O)c(F)c(Nc2ccc(I)cc2F)c2c(=O)n(OC[C@H](O)CO)cnc21 | 0
COc1ccc(-c2cc3c(C)nc(N)nc3n([C@H]3CC[C@H](OCCO)CC3)c2=O)cn1 | 0
CCCNC(=O)Nc1ccc(Oc2ncnc3ccn(C)c23)cc1 | 0
CCCC(=O)Nc1n[nH]c2ncc(-c3cccc4ccccc34)cc12 [SB-642057] | 0
Nc1ncnc2c1ncn2-c1cccc(F)c1 [SKF-97560] | 0
CCn1c(-c2nonc2N)nc2ccccc21 [SB-693162/GW549034] | 0
CCS(=O)c1ccc(-c2coc3ccc(-c4nnc(C)o4)cc23)cc1 (centres unmarked) | 0
COc1cccc(C2=C(Nc3cccc(C(=O)O)c3)C(=O)NC2=O)c1 [SB-390770] | 0
O=C(NCc1cccs1)c1cc(C(=O)c2c(Cl)cccc2Cl)c[nH]1 [GW823670] | 0
CCC(=O)c1c(-c2ccccc2)c2cc(Cl)ccc2c(=O)n1Cc1cc(S(C)(=O)=O)n(CCC(C)(C)O)n1 | 0
FC(F)(F)c1ccc(-c2ncn(CCCN3CCOCC3)c2-c2ccncc2)cc1 [SB-217780] | 0
COC(=O)c1c(-c2ccccc2)c2cc(Br)ccc2c(=O)n1Cc1ccc(S(C)(=O)=O)cc1 | 26
CCn1c(-c2ccoc2)nc2cnccc21 [SB-733887] | 6
COc1ccc(CNC(=O)NC2CCN(c3ccnc(Nc4ccc(F)cc4)n3)C2)cc1 (centres unmarked) [GSK1379706] | 42
Nc1ncnc2c1ncn2-c1ccc(Cl)cc1 [AH2635] | 49
COc1cc2ncn(-c3cc(OCc4ccncc4Br)c(C(N)=O)s3)c2cc1OC [GW854278] | 0
Cl.NS(=O)(=O)c1cccc(Nc2cc(-c3ccc(F)cc3)n[nH]2)c1 [GW824645] | 0

---

The entries below come with measured %Inh values attached.
# System: PAK4
# assay conditions: concentration: 1 μM, replicates: in singlicate; n = 1
reported metric: %Inh (%)

Nc1ncnc2c1ncn2-c1ccc(Cl)cc1 | 0
CCCNC(=O)Nc1ccc(Oc2ncnc3ccn(C)c23)cc1 | 0
Cc1ccc(-c2ccc3c(ccc4sc5c(c43)NC[C@@H](C)N=C5N(C)C)n2)cn1 | 0
COc1cc2nccc(Nc3cccc(Oc4ccccc4)c3)c2cc1OC.Cl | 0
CCC(=O)c1c(-c2ccccc2)c2cc(Cl)ccc2c(=O)n1Cc1cc(S(C)(=O)=O)n(CC(N)=O)n1 | 5
COc1ccc(-n2cnc3c(N)ncnc32)cc1 | 0
COc1cc(OC)cc(-c2cc3cnc(N)nc3nc2NC(=O)NC(C)(C)C)c1 | 0
Cc1ccc(Oc2ccc(Nc3ncnc4cc[nH]c34)cc2C)cn1 | 25
COc1cccc(C2=C(Nc3cccc(C(=O)O)c3)C(=O)NC2=O)c1 | 0
COc1cc(Nc2ccnc3ccc(C(F)(F)F)cc23)cc(OC)c1OC | 4
COc1ccc(-c2cc3c(C)nc(N)nc3n([C@H]3CC[C@H](OCCO)CC3)c2=O)cn1 | 0
Cc1nn2c(=O)cc(N3CCOCC3)nc2n1Cc1cccc(Cl)c1Cl | 0
Cc1nnc(-c2ccc(C)c(-c3ccc(C(=O)O)cc3)c2)o1 | 0
Cl.c1ccc(Cn2cnc3cc(Nc4ncnc5ccccc45)ccc32)cc1 | 0
O=C(Nc1n[nH]c2cc(-c3ccccc3F)ccc12)C1CC1 | 0
Cc1cccc(-c2cc(-c3c[nH]nc3-c3ccccn3)ccn2)c1 | 0
COc1cccc(-n2cnc3c(N)ncnc32)c1 | 18
Nc1nc(N)c2nc(-c3ccccc3)[nH]c2n1 | 13
Cc1c(Cn2c(C)nn3c(=O)cc(N4CCO[C@H](C)C4)nc23)cccc1C(F)(F)F | 0
Nc1ncnc2c1ncn2-c1cccc2ccccc12 | 0
COC(=O)c1c(-c2ccccc2)c2cc(Br)ccc2c(=O)n1Cc1ccc(NC(=O)CCC(=O)O)cc1 | 2
COc1cc(Nc2nccc(N3CCC(NC(=O)C(C)c4ccc(Cl)cc4)C3)n2)cc(OC)c1OC (stereo not shown) | 0
COc1cccc(C2=C(N(C)c3ccccc3)C(=O)NC2=O)c1 | 0
COc1ccc(-c2coc3ccc(-c4nnc(SCc5cccc(C#N)c5)o4)cc23)cc1 | 14
Nc1n[nH]c2nnc(-c3ccccc3)c(-c3ccccc3)c12 | 0
CCc1ccc(-c2ccc3c(c2)-c2nn(C)cc2S(=O)(=O)N3C)cc1 | 0
CCC(=O)c1c(-c2ccccc2)c2cc(Cl)ccc2c(=O)n1Cc1cc(S(C)(=O)=O)n(CCC(C)(C)O)n1 | 6
CN1C(=O)C(Nc2cc(Cl)c(O)c(Cl)c2)=C(c2ccc(Cl)cc2)C1=O | 34
COc1cc2ncn(-c3cc(OCc4ccncc4Br)c(C(N)=O)s3)c2cc1OC | 8
COc1ccc(Nc2nccc(N3CCC(NS(=O)(=O)c4ccc(NC(C)=O)cc4)C3)n2)cc1 (stereo not shown) | 0
CCC(=O)c1c(-c2ccccc2)c2cc(Cl)ccc2c(=O)n1Cc1cc(C(=O)NC2CC2)n(C)n1 | 0
Cc1nc(N(C)[C@H]2CN(C(=O)CC#N)CC[C@H]2C)c2cc[nH]c2n1 | 0
Cn1c(=O)c(F)c(Nc2ccc(I)cc2F)c2c(=O)n(OC[C@H](O)CO)cnc21 | 8
Nc1n[nH]c2ncc(-c3ccccc3)cc12 | 0
CN(C)c1cc(-c2ccc3c(N)n[nH]c3c2)nc(N)n1 | 0
COC(=O)c1c(-c2ccccc2)c2cc(C)ccc2c(=O)n1Cc1ccccc1 | 0
Cl.NS(=O)(=O)c1cccc(Nc2cc(-c3ccc(F)cc3)n[nH]2)c1 | 0
